Could you please report measured remaining at 1 h, 1 µM for the items listed next?
assay: Stability of the compound in rat plasma assessed as drug remaining at 1 uM incubated for 1 hr by LC-MS/MS method; format: ADME, cell-free; settings: read-out: Stability
Give bare numbers, in %.

Example cases with answers are listed next.
Cc1cc(-c2ccc(SCC(=O)Nc3ccc(-c4cnccn4)cn3)cc2)ccn1 ... 91
Cc1cc(-c2ccc(OCC(=O)Nc3ccc(-c4cnccn4)cn3)cc2)ccn1 ... 90
Cc1cc(-c2ccc(CCC(=O)Nc3ccc(-c4cnccn4)cn3)cc2)ccn1 ... 94
Cc1cc(-c2ccc(OC(C)C(=O)Nc3ccc(-c4cnccn4)cn3)cc2)ccn1 (stereo not given) ... 100

Q: Which remaining at 1 h, 1 µM reading was recorded for the compound Cc1cc(-c2ccc(NCC(=O)Nc3ccc(-c4cnccn4)cn3)cc2)ccn1 ?
A: 100
